# System: PC-3
# method-description: NCI SRB assay
# Assay type: cell-based, human
# experimental-setup: PC-3, 1.00E-5 Molar
assay-endpoint: Growth Percent (%)
Give a bare numeral; the unit % is implied.

Solved entries (count: 3):
[[record]]
mol_smiles = "Cc1ccc(-c2nc(Nc3cccc(C(=O)O)c3)c3ccccc3n2)cc1"
meas_value = 80.52

[[record]]
mol_smiles = "Cc1ccc(-c2nc(Nc3ccc(C(=O)O)cc3)c3ccccc3n2)cc1"
meas_value = 77.04

[[record]]
mol_smiles = "Cc1ccc(-c2nc(Nc3ccccc3C(=O)O)c3ccccc3n2)cc1"
meas_value = 15.75


// next item, Growth Percent requested
Lookup: Please state recorded Growth Percent (tested on PC-3) of `Cc1cccc(-c2nc(Nc3ccc(C(=O)O)cc3)c3ccccc3n2)c1`
Found: 83.31

Data credit: paper PMC10035947
